B1: library; a variant is named by its letters at X, in order (parent)
chain: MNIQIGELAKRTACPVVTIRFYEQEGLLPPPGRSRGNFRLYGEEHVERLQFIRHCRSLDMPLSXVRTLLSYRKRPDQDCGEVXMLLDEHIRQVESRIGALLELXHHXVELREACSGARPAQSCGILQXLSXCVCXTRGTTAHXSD

# Variants of: B1
# protocol-summary: sfGFP reporter fluorescence (15 h) (µM FITC); higher = stronger transcriptional activation
# reported-conditions: library round: Round 3; ligand: 1 µM Pb
Would you please tag the item class 1 when its sfGFP reporter fluorescence is 0.5 or above, and class 0 when it is below?

Exam item: Does sfGFP reporter fluorescence meet or surpass 0.5 for LILCGAAP V16C H54C C55P H106A ?
Marked response: class 0

Exam item: Does sfGFP reporter fluorescence meet or surpass 0.5 for TIVLGDDR H106A ?
Marked response: class 0

Exam item: Does sfGFP reporter fluorescence meet or surpass 0.5 for DCKVGDDP V82I L85M ?
Marked response: class 0

Exam item: Does sfGFP reporter fluorescence meet or surpass 0.5 for DTKIGDDP V108L E112A ?
Marked response: class 0

Exam item: Does sfGFP reporter fluorescence meet or surpass 0.5 for KNVLMDDP M60L P61N ?
Marked response: class 1

Exam item: Does sfGFP reporter fluorescence meet or surpass 0.5 for LIVCGAAP V16C H54C C55P H106A ?
Marked response: class 0

Exam item: Does sfGFP reporter fluorescence meet or surpass 0.5 for KNKCSDDP M60L P61N ?
Marked response: class 1

Exam item: Does sfGFP reporter fluorescence meet or surpass 0.5 for DNKCGADY M60L ?
Marked response: class 1

Exam item: Does sfGFP reporter fluorescence meet or surpass 0.5 for DTKLGAPW V108L ?
Marked response: class 0

Exam item: Does sfGFP reporter fluorescence meet or surpass 0.5 for DNVLGDDY H54A H142C ?
Marked response: class 0

Exam item: Does sfGFP reporter fluorescence meet or surpass 0.5 for DNKCMDAA D87E ?
Marked response: class 1

Exam item: Does sfGFP reporter fluorescence meet or surpass 0.5 for DNRCMDAK ?
Marked response: class 1

Exam item: Does sfGFP reporter fluorescence meet or surpass 0.5 for DTKLGSPL ?
Marked response: class 0

Exam item: Does sfGFP reporter fluorescence meet or surpass 0.5 for DNKCIDAK M84A G124A ?
Marked response: class 1

Exam item: Does sfGFP reporter fluorescence meet or surpass 0.5 for LIKCGAAP H54C C55P H106L ?
Marked response: class 0

Exam item: Does sfGFP reporter fluorescence meet or surpass 0.5 for DCVLGDDP V16C H54A ?
Marked response: class 0

Exam item: Does sfGFP reporter fluorescence meet or surpass 0.5 for KITLGDDR H106A ?
Marked response: class 0

Exam item: Does sfGFP reporter fluorescence meet or surpass 0.5 for KIVLGDDR L62I ?
Marked response: class 0

Exam item: Does sfGFP reporter fluorescence meet or surpass 0.5 for DSKLGNRA Q121A ?
Marked response: class 0

Exam item: Does sfGFP reporter fluorescence meet or surpass 0.5 for KFVLGDDT H106A ?
Marked response: class 1

Exam item: Does sfGFP reporter fluorescence meet or surpass 0.5 for KNVCMDDP E81A ?
Marked response: class 1

Exam item: Does sfGFP reporter fluorescence meet or surpass 0.5 for LIVCGAAP H54C C55P H106L ?
Marked response: class 0

Exam item: Does sfGFP reporter fluorescence meet or surpass 0.5 for DNKCMDAK G124A ?
Marked response: class 1

Exam item: Does sfGFP reporter fluorescence meet or surpass 0.5 for DNVCIDDA M60L ?
Marked response: class 1

Exam item: Does sfGFP reporter fluorescence meet or surpass 0.5 for DTKLGCDA Q121A ?
Marked response: class 0

Exam item: Does sfGFP reporter fluorescence meet or surpass 0.5 for KIVLGDDR H106E ?
Marked response: class 1

Exam item: Does sfGFP reporter fluorescence meet or surpass 0.5 for DTKCGCDA ?
Marked response: class 1

Exam item: Does sfGFP reporter fluorescence meet or surpass 0.5 for TTKCGDRP ?
Marked response: class 1

Exam item: Does sfGFP reporter fluorescence meet or surpass 0.5 for ENKCMDAK ?
Marked response: class 1

Exam item: Does sfGFP reporter fluorescence meet or surpass 0.5 for DTKCIDAK ?
Marked response: class 1

Exam item: Does sfGFP reporter fluorescence meet or surpass 0.5 for LCKCGAAP H54C C55P H106L ?
Marked response: class 0

Exam item: Does sfGFP reporter fluorescence meet or surpass 0.5 for KFVLGDDP P61T H106A ?
Marked response: class 0

Exam item: Does sfGFP reporter fluorescence meet or surpass 0.5 for DNVCMDDP Y41F P61N ?
Marked response: class 1

Exam item: Does sfGFP reporter fluorescence meet or surpass 0.5 for DTKLGCDL Q121A ?
Marked response: class 0

Exam item: Does sfGFP reporter fluorescence meet or surpass 0.5 for DNKCMDAK P61D ?
Marked response: class 1

Exam item: Does sfGFP reporter fluorescence meet or surpass 0.5 for DTKCGAAP ?
Marked response: class 1

Exam item: Does sfGFP reporter fluorescence meet or surpass 0.5 for DTKCGSAP ?
Marked response: class 1

Exam item: Does sfGFP reporter fluorescence meet or surpass 0.5 for KNVCMDDP M60L P61N ?
Marked response: class 1

Exam item: Does sfGFP reporter fluorescence meet or surpass 0.5 for DVVLGDDR H106A ?
Marked response: class 0

Exam item: Does sfGFP reporter fluorescence meet or surpass 0.5 for KTVLIDDP P61T ?
Marked response: class 0

Exam item: Does sfGFP reporter fluorescence meet or surpass 0.5 for KFVLGDDP I90A H106A ?
Marked response: class 0

Exam item: Does sfGFP reporter fluorescence meet or surpass 0.5 for DNRLGAPL ?
Marked response: class 0

Exam item: Does sfGFP reporter fluorescence meet or surpass 0.5 for DTKLGHPY Q121A ?
Marked response: class 0

Exam item: Does sfGFP reporter fluorescence meet or surpass 0.5 for DTKLGSDP V108L H142A ?
Marked response: class 0

Exam item: Does sfGFP reporter fluorescence meet or surpass 0.5 for DTKLGSRP V108L ?
Marked response: class 0

Exam item: Does sfGFP reporter fluorescence meet or surpass 0.5 for KNKCIDDP M60L P61N ?
Marked response: class 1
